# System Tested: T1, TNFR1 (Homo sapiens, UniProt P19438)
# T1 chain: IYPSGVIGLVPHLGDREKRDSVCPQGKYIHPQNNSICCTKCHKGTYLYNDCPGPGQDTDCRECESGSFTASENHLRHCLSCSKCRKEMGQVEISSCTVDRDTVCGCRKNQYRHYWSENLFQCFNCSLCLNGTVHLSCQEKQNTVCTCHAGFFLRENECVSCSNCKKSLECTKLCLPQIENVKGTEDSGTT
# Measurement Description: yeast display SC50
Exam item: assign T to entries whose apparent Kd (screen) is below 2 nM and F to entries at or above 2 nM. Note that a value of exactly 2 nM receives F.

The following binders have reported results that may help.
R38S (designed binder) SMEEEVEKAAKEYEKKKKEAIEKHLEKLKAKDKEAAESFLKELEEAAKEYAKDEAKTMSEEEAKRRAKKYKEKVLLSELSEEEQKEIKEAEEKLVRTILKYVEEAAK    F
E61T (designed binder) SMEEEVEKAAKEYEKKKKEAIEKHLEKLKAKDKEAAERFLKELEEAAKEYAKDEAKTMSETEAKRRAKKYKEKVLLSELSEEEQKEIKEAEEKLVRTILKYVEEAAK    T
L94N (designed binder) SMEEEVEKAAKEYEKKKKEAIEKHLEKLKAKDKEAAERFLKELEEAAKEYAKDEAKTMSEEEAKRRAKKYKEKVLLSELSEEEQKEIKEAEEKNVRTILKYVEEAAK    F
R66V (designed binder) SMEEEVEKAAKEYEKKKKEAIEKHLEKLKAKDKEAAERFLKELEEAAKEYAKDEAKTMSEEEAKRVAKKYKEKVLLSELSEEEQKEIKEAEEKLVRTILKYVEEAAK    F
E54H (designed binder) SMEEEVEKAAKEYEKKKKEAIEKHLEKLKAKDKEAAERFLKELEEAAKEYAKDHAKTMSEEEAKRRAKKYKEKVLLSELSEEEQKEIKEAEEKLVRTILKYVEEAAK    F

Lab note: confirm whether the reported apparent Kd (screen) for this binder is below 2 nM, equality not counting. binder: L99F (designed binder) SMEEEVEKAAKEYEKKKKEAIEKHLEKLKAKDKEAAERFLKELEEAAKEYAKDEAKTMSEEEAKRRAKKYKEKVLLSELSEEEQKEIKEAEEKLVRTIFKYVEEAAK
F

Lab note: confirm whether the reported apparent Kd (screen) for this binder is below 2 nM, equality not counting. binder: E5I (designed binder) SMEEIVEKAAKEYEKKKKEAIEKHLEKLKAKDKEAAERFLKELEEAAKEYAKDEAKTMSEEEAKRRAKKYKEKVLLSELSEEEQKEIKEAEEKLVRTILKYVEEAAK
T

Lab note: confirm whether the reported apparent Kd (screen) for this binder is below 2 nM, equality not counting. binder: A46D (designed binder) SMEEEVEKAAKEYEKKKKEAIEKHLEKLKAKDKEAAERFLKELEEDAKEYAKDEAKTMSEEEAKRRAKKYKEKVLLSELSEEEQKEIKEAEEKLVRTILKYVEEAAK
F

Lab note: confirm whether the reported apparent Kd (screen) for this binder is below 2 nM, equality not counting. binder: E19I (designed binder) SMEEEVEKAAKEYEKKKKIAIEKHLEKLKAKDKEAAERFLKELEEAAKEYAKDEAKTMSEEEAKRRAKKYKEKVLLSELSEEEQKEIKEAEEKLVRTILKYVEEAAK
T

Lab note: confirm whether the reported apparent Kd (screen) for this binder is below 2 nM, equality not counting. binder: A67E (designed binder) SMEEEVEKAAKEYEKKKKEAIEKHLEKLKAKDKEAAERFLKELEEAAKEYAKDEAKTMSEEEAKRREKKYKEKVLLSELSEEEQKEIKEAEEKLVRTILKYVEEAAK
F

Lab note: confirm whether the reported apparent Kd (screen) for this binder is below 2 nM, equality not counting. binder: V6K (designed binder) SMEEEKEKAAKEYEKKKKEAIEKHLEKLKAKDKEAAERFLKELEEAAKEYAKDEAKTMSEEEAKRRAKKYKEKVLLSELSEEEQKEIKEAEEKLVRTILKYVEEAAK
T

Lab note: confirm whether the reported apparent Kd (screen) for this binder is below 2 nM, equality not counting. binder: F39S (designed binder) SMEEEVEKAAKEYEKKKKEAIEKHLEKLKAKDKEAAERSLKELEEAAKEYAKDEAKTMSEEEAKRRAKKYKEKVLLSELSEEEQKEIKEAEEKLVRTILKYVEEAAK
F

Lab note: confirm whether the reported apparent Kd (screen) for this binder is below 2 nM, equality not counting. binder: E7Y (designed binder) SMEEEVYKAAKEYEKKKKEAIEKHLEKLKAKDKEAAERFLKELEEAAKEYAKDEAKTMSEEEAKRRAKKYKEKVLLSELSEEEQKEIKEAEEKLVRTILKYVEEAAK
F

Lab note: confirm whether the reported apparent Kd (screen) for this binder is below 2 nM, equality not counting. binder: E7R (designed binder) SMEEEVRKAAKEYEKKKKEAIEKHLEKLKAKDKEAAERFLKELEEAAKEYAKDEAKTMSEEEAKRRAKKYKEKVLLSELSEEEQKEIKEAEEKLVRTILKYVEEAAK
F

Lab note: confirm whether the reported apparent Kd (screen) for this binder is below 2 nM, equality not counting. binder: K93A (designed binder) SMEEEVEKAAKEYEKKKKEAIEKHLEKLKAKDKEAAERFLKELEEAAKEYAKDEAKTMSEEEAKRRAKKYKEKVLLSELSEEEQKEIKEAEEALVRTILKYVEEAAK
T

Lab note: confirm whether the reported apparent Kd (screen) for this binder is below 2 nM, equality not counting. binder: E26N (designed binder) SMEEEVEKAAKEYEKKKKEAIEKHLNKLKAKDKEAAERFLKELEEAAKEYAKDEAKTMSEEEAKRRAKKYKEKVLLSELSEEEQKEIKEAEEKLVRTILKYVEEAAK
T
